FYI, the data here is from the supplement of paper PMC10567573.

B1: SEC22B (parent)
chain: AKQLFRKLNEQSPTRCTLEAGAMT

- Variants of: B1
- assayProcedure: protein stability index of a GFP-peptide fusion (GPS, HEK-293T) (PSI 1-6); higher = more stable;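 also: lentivirally expressed fusions sorted by FACS into six bins by GFP to DsRed ratio, PSI derived from sequencing read proportions per bin multiplied by bin number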
- details: c terminus: a fixed tail appended
measurementKind: protein stability index
Give a plain numeric answer without units written out.

Reference set (2 entries):
>>> observedvalue("Q11S")
2.1
>>> observedvalue("N9G")
2.47

get_value(item= `Q3E` , readout=protein stability index) returns 2.51

Looking up `L4Q` , I see its protein stability index listed as 2.68

protein stability index reported for this variant `T14D` : 3.27
